- assay-remarks: Metabolic stability study in human microsome
- Format: in vitro ADME
In this section, each of the compounds is paired with its reported Human Hepatic Clearance.
Write down the numeric answer in mL/min/kg and omit the unit.

COC(=O)C1=C(CN2CCOC[C@H]2C(=O)O)NC(c2nccs2)=N[C@H]1c1ccc(F)cc1Br: 5.33
COC(=O)C1=C(CN2CC(F)(F)C[C@H]2C(=O)O)NC(c2nccs2)=N[C@H]1c1cc(F)c(F)cc1Cl: 3.38
COC(=O)C1=C(CN2CC(F)(F)C[C@H]2C(=O)O)NC(c2nccs2)=N[C@H]1c1ccc(F)c(F)c1Cl: 0.51
COC(=O)C1=C(CN2CC(F)(F)C[C@H]2C(=O)O)NC(c2nccs2)=N[C@H]1c1ccc(Br)cc1Cl: 7.65
COC(=O)C1=C(CN2CC(F)(F)C[C@H]2C(=O)O)NC(c2nc(C3CC3)cs2)=N[C@H]1c1ccc(F)cc1Cl: 8.76
COC(=O)C1=C(CN2CCOC[C@H]2C(=O)O)NC(c2nccs2)=N[C@H]1c1ccc(F)c(F)c1Cl: 0

Turning now to a further record.
Incoming: Entry "CCOC(=O)C1=C(CN2CCOC[C@H]2C(=O)O)NC(c2nccs2)=N[C@H]1c1ccc(Cl)cc1F" has what Human Hepatic Clearance?
Outgoing: 0

###

- assay-remarks: Lyophilisation solubility assay (Lysa)
- Assay type: physicochemical
- setup-conditions: phosphate buffer, pH 6.5, aqueous buffer, thermodynamic from solid
endpoint: solubility thermodynamic

A selection of reference data follows.
CCOC(=O)C1=C(CN2CCOC[C@H]2C(=O)O)NC(c2nccs2)=N[C@H]1c1ccc(Cl)cc1F: > 679 µg/mL
CCOC(=O)C1=C(CN2CCOC[C@H]2C(=O)O)NC(c2nccs2)=N[C@H]1c1ccc(F)c(F)c1Cl: > 703 µg/mL
CCOC(=O)C1=C(CN2CCOC[C@H]2C(=O)O)NC(c2nccs2)=N[C@H]1c1ccc(Cl)c(Br)c1: > 655 µg/mL
CCOC(=O)C1=C(CN2CC(F)(F)C[C@H]2C(=O)O)NC(c2nccs2)=N[C@H]1c1ccc(Br)cc1: > 625 µg/mL
CCOC(=O)C1=C(CN2CCOC[C@H]2C(=O)O)NC(c2nccs2)=N[C@H]1c1ccc(Cl)cc1Cl: > 654 µg/mL
CCOC(=O)C1=C(CN2CCOC[C@H]2C(=O)O)NC(c2nccs2)=N[C@H]1c1cccc(F)c1: > 621 µg/mL
CCOC(=O)C1=C(CN2CC(F)(F)C[C@H]2C(=O)O)NC(c2nccs2)=N[C@H]1c1cccc(F)c1F: > 580 µg/mL
[2H][C@@]1(c2ccc(F)cc2Cl)N=C(c2nccs2)NC(CN2CC(F)(F)C[C@H]2C(=O)O)=C1C(=O)OC: > 644 µg/mL

Incoming: Bench note: what solubility thermodynamic did "CCOC(=O)C1=C(CN2CC(F)(F)C[C@H]2C(=O)O)NC(c2nccs2)=N[C@H]1c1ccc(F)c(F)c1" show?
Outgoing: > 630 µg/mL

Incoming: Name the recorded solubility thermodynamic for "CCOC(=O)C1=C(CN2CCOC[C@H]2C(=O)O)NC(c2nccs2)=N[C@H]1c1ccc(F)cc1F" .
Outgoing: > 638 µg/mL

Incoming: # get_value(readout='solubility thermodynamic', item= "COC(=O)C1=C(CN2CCOC[C@H]2C(=O)O)NC(c2nccs2)=N[C@H]1c1ccc(Br)cc1F" )
Outgoing: > 677 µg/mL

Incoming: What measured solubility thermodynamic goes with "CCOC(=O)C1=C(CN2CCOC[C@H]2C(=O)O)NC(c2nccn2C)=N[C@H]1c1ccc(F)c(F)c1" ?
Outgoing: > 613 µg/mL

Incoming: Reported solubility thermodynamic, compound "[2H]C1([2H])[C@@H](C(=O)O)N(CC2=C(C(=O)OC)[C@H](c3ccc(F)cc3Cl)N=C(c3nccs3)N2)CC1(F)F" : ____
Outgoing: > 654 µg/mL

Incoming: Tell me the measured solubility thermodynamic of "CCCOC(=O)C1=C(CN2CCOC[C@H]2C(=O)O)NC(c2nccs2)=N[C@H]1c1ccc(F)cc1Cl" , please.
Outgoing: > 677 µg/mL

Incoming: Which solubility thermodynamic value belongs to "COC(=O)C1=C(CN2CCOC[C@H]2C(=O)O)NC(c2nc(C(F)F)cs2)=N[C@H]1c1ccc(F)cc1Cl" ?
Outgoing: > 665 µg/mL

Incoming: What value of solubility thermodynamic has been recorded for this entry: "COC(=O)C1=C(CN2CC(F)(F)CC[C@H]2C(=O)O)NC(c2nccs2)=N[C@H]1c1cccc(F)c1Cl"
Outgoing: > 657 µg/mL

Incoming: State the recorded solubility thermodynamic for this entry: "CC(C)OC(=O)C1=C(CN2CCOC[C@H]2C(=O)O)NC(c2nccs2)=N[C@H]1c1ccc(F)c(F)c1"
Outgoing: > 656 µg/mL

Incoming: Give its solubility thermodynamic value. Item: "COC(=O)C1=C(CN2CCOC[C@H]2C(=O)O)NC(c2nccs2)=N[C@H]1c1cccc(F)c1Cl"
Outgoing: > 660 µg/mL

Incoming: Give the measured solubility thermodynamic of COC(=O)C1=C(CN2CCOC[C@H]2C(=O)O)NC(c2nc(C)cn2C)=NC1c1ccc(F)cc1Cl (stereo in doubt) .
Outgoing: > 602 µg/mL

Incoming: Sample "CCOC(=O)C1=C(CN2CC(F)(F)CC[C@H]2C(=O)O)NC(c2nccs2)=N[C@H]1c1ccc(F)cc1Br" — what was its solubility thermodynamic?
Outgoing: 510 µg/mL

Incoming: Query (compound): "COC(=O)C1=C(CN2CC(F)(F)C[C@H]2C(=O)O)NC(c2nccs2)=N[C@H]1c1ccc(Cl)cc1F" ; field requested: solubility thermodynamic
Outgoing: > 630 µg/mL
